Biological target: KRAS G12D (Homo sapiens (Human), UniProt P01116+P62937, G12D)
Sequence (P01116-2 other isoform, or with tags, fused parts or gaps G12D): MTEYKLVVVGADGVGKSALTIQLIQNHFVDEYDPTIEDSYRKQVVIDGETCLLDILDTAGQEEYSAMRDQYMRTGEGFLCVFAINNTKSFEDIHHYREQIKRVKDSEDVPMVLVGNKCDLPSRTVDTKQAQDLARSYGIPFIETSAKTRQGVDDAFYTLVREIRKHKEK
Sequence (P62937 whole entry): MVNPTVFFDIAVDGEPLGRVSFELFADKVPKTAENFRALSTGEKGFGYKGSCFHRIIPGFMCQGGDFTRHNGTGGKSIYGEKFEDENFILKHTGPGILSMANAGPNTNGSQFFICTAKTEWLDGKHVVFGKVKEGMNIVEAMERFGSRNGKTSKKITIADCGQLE
Assay: Ras-Raf (BRAF RBD) disruption / FRET / MOA assay, KRAS G12D
Format: biochemical
Conditions: Ras-Raf disruption/FRET/MOA assay; class symbols; read-out: KRAS G12D FRET data IC50
measure_name: IC50

The reported IC50 of the compound C=CC(=O)N1CC[C@H](C(=O)N(C)[C@H](C(=O)N[C@H]2Cc3csc(n3)-c3ccc4c(c3)c(c(-c3cc(N5CCN(C)CC5)cnc3[C@H](C)OC)n4CC(F)(F)F)CC(C)(C)COC(=O)[C@@H]3CCCN(N3)C2=O)C(C)C)C1 was 1 to 10 µM

The reported IC50 of the compound C=CC(=O)N1CC[C@H](C(=O)N(C)[C@H](C(=O)N[C@H]2Cc3csc(n3)-c3ccc4c(c3)c(c(-c3cccnc3[C@H](C)OC)n4CC(F)(F)F)CC(C)(C)COC(=O)[C@@H]3CCCN(N3)C2=O)C(C)C)C1 (atropisomer, axis not shown) was 1 to 10 µM
